meta.source: ChEMBL document CHEMBL5257105

Measured CC50 by item
- method-summary: Cytotoxicity against human A549 cells
- Assay type: toxicity, cell-based
- condition-info: A549 cells
Could you give me the number in µM? Just the number is fine.

{"item-smiles": "Cc1cc(Cl)cc2sc(NC(=O)c3ccco3)nc12", "unit": "µM", "CC50": 17.9}
{"item-smiles": "Cc1cc(Cl)cc2sc(N(CCCn3ccnc3)CC3CC3)nc12", "unit": "µM", "CC50": 65.6}
{"item-smiles": "Cc1cc(Cl)cc2sc(N(CCCn3ccnc3)CS(=O)(=O)c3ccco3)nc12", "unit": "µM", "CC50": 43.2}
{"item-smiles": "O=C(c1ccco1)N(CCCn1ccnc1)c1nc2c(F)cc(F)cc2s1", "unit": "µM", "CC50": 93.7}
{"item-smiles": "Cc1cc(Cl)cc2sc(N(CCCn3ccnc3)C(=O)c3ccco3)nc12", "unit": "µM", "CC50": 34.1}

Value of CC50 reported for the compound Cc1cccc2sc(N(CCCn3ccnc3)C(=O)c3ccco3)nc12 is 84.7

The measured CC50 associated with O=C(c1ccco1)N(CCCn1ccnc1)c1nc2ccccc2s1 reads 142

According to the records, this compound Cc1cc(Cl)cc2sc(NCCCn3ccnc3)nc12 displays CC50 of 111

Lab note: measured CC50 of Cc1cc(Cl)cc2sc(N(CCCn3ccnc3)CS(=O)(=O)c3cccs3)nc12 was 26.3

Consider Cc1c(Cl)ccc2sc(N(CCCn3ccnc3)C(=O)c3ccco3)nc12 . Its measured CC50 is 27.4
